assay: compound fluorescence in toxin protease inhibitor counterscreen, primary screen, artefact control for toxin protease inhibitor project, biochemical, multiplex microsphere, HTS (AID 624483); settings: compound autofluorescence counterscreen, microsphere flow cytometry; stronger effect = higher value
About 11,000 (3.1%) of roughly 360,000 compounds were called active. About 2% were inconclusive and are not listed. The sample holds actives, similar compounds and a random draw of the others, so the mix is not that of the screen.
Each entry gets false if its fluorescence intensity stays under 5000, and true if its fluorescence intensity is 5000 or above.

[Q] Is reported fluorescence intensity greater than or equal to 5000 here: `COCCn1nnnc1CN1CCC(NC(=O)Nc2cccc(OC)c2)CC1`
[A] true

[Q] Now the compound CC(C)CN(C(=O)Cn1c(=O)cnc2ccccc21)C1CCS(=O)(=O)C1 (stereo not given)
[A] true

[Q] Now the compound `O=C(c1c(F)cccc1F)N1CCN(S(=O)(=O)c2ccc3c(c2)OCCO3)CC1`
[A] false

---

experiment: compound fluorescence in toxin protease inhibitor counterscreen, primary screen, artefact control for toxin protease inhibitor project, biochemical, multiplex microsphere, HTS (AID 624483); details: compound autofluorescence counterscreen, microsphere flow cytometry; stronger effect = higher value
Out of some 360,000 compounds screened, about 11,000 (3.1%) were called active. Inconclusive results (about 2%) are left out. The list comes from a sample in which actives are over-represented; it also holds close analogues and randomly drawn compounds.
quantityKind: fluorescence intensity

Here is how some compounds turned out for fluorescence intensity.
1. O=C(NCCCn1ccnc1)c1cc(-c2ccccc2)on1
3190 (inactive)
2. Nc1nnc(SCC(=O)Nc2ccc3nc(SCC(=O)Nc4ccccc4)sc3c2)s1
2450 (inactive)
3. CC(=O)Nc1ccccc1C(=O)OCC(=O)c1cccc2ccccc12
4440 (inactive)
4. COc1cccc(NC(=O)CCNS(=O)(=O)c2ccc3c(c2)oc(=O)n3C)c1
4240 (inactive)
5. COc1ccccc1C(=O)Nc1ccc(Nc2ccccc2)cc1
4350 (inactive)
6. CCOc1ccc(NC(=O)c2ccc(NC(=O)COC(=O)c3ccc(NC(=O)CC#N)cc3)cc2)cc1
4430 (inactive)
7. COc1ccc(/C=C2/CCCc3ccccc3C2=O)cc1
3030 (inactive)
8. CC(C)CN1CCC1(C)C(=O)Nc1ccc(OC(F)F)cc1 (centres undefined)
3880 (inactive)

[Q] Fill blank: measured fluorescence intensity of the compound `Cc1cc(NC(=O)Nc2ccc(Cl)cc2)n(-c2ccccc2)n1` is ____.
[A] 5820 (inactive)

[Q] Now the compound `COc1cc(/C=N\NC(=O)c2nonc2N)c(OC)cc1Br`
[A] 2500 (inactive)

[Q] Now the compound `Cc1cc(NC(=O)c2cnn3cccnc23)n(-c2ccccc2)n1`
[A] 19500 (active)

[Q] Now the compound `C=CCN(CC=C)C(=O)CN1C(=O)c2ccccc2C1=O`
[A] 16300 (active)

[Q] Now the compound CCN(CC)CCN(C)C(c1ccnc2ccccc12)c1nnnn1-c1ccc2c(c1)OCCO2 (centres undefined)
[A] 4670 (inactive)

[Q] Now the compound `O=C(O)c1cccnc1Sc1ncnc2sc3c(c12)CCC3`
[A] 4510 (inactive)

---

test: compound fluorescence in toxin protease inhibitor counterscreen, primary screen, artefact control for toxin protease inhibitor project, biochemical, multiplex microsphere, HTS (AID 624483); details: compound autofluorescence counterscreen, microsphere flow cytometry
Among all 360,000 compounds or so, about 11,000 (3.1%) were called active. Roughly 2% stayed inconclusive and do not appear here. Cut-off read from the data, not from the text of the source: active = fluorescence intensity above about 16000; inconclusive = no clear call, values can overlap the other calls; inactive = below that. This is one part of a sample in which actives are shown more often than they occur.
Choose the fitting class; nothing outside active, inactive is accepted.

1. Cc1ccc(S(=O)(=O)NC(C)C(=O)Nc2ccccc2C(=O)N2CCCC2)cc1 (stereo not given)
inactive

[Q] Lab log entry: `COc1ccc(C(=O)CN(C(=O)c2ccc(Cl)cc2)N2C(=O)c3ccccc3C2=O)cc1` — outcome as called in the assay?
[A] active
